Listing of recorded IC50 by entry.
Target: EGFR tyrosine kinase (Homo sapiens, UniProt P00533)
Construct: Recombinant intracellular fragments of EGFR, erbB2 and erbB4; made in house; host or cells: baculovirus/Sf21 insect cells (cleared lysate used)
Sequence (P00533 669-1210 limits assumed): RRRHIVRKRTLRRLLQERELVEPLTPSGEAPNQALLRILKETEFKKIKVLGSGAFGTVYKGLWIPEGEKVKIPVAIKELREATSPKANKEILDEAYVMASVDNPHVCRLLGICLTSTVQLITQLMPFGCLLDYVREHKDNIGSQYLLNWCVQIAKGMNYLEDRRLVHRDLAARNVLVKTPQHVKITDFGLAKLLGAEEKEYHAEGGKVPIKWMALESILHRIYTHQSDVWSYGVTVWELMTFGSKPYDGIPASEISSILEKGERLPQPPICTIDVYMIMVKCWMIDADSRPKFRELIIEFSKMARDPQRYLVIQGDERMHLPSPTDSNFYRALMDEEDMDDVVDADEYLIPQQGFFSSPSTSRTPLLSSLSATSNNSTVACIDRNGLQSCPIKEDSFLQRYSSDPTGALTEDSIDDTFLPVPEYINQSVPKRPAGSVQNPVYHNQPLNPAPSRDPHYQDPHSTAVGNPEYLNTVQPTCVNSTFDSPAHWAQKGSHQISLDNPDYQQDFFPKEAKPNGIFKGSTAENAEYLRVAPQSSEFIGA
Experiment: Protein tyrosine kinase phosphorylation assay, Test (a), EGFR
Assay type: biochemical
Conditions: recombinant intracellular fragment, ATP at Km; read-out: IC50 (μM) Test (a): Inhibition of EGFR tyrosine kinase protein phosphorylation
Quick note: unit goes after the number.

compound="CC(O)C(=O)N(C)CCOc1cccc2ncnc(Nc3ccc(OCc4ccccn4)c(Cl)c3)c12 (stereo not drawn)" readout_name=IC50 reported_result="0.197 µM"
compound=O=C(CO)N(CCOc1cccc2ncnc(Nc3ccc(OCc4ccccn4)c(Cl)c3)c12)C1CCOCC1 readout_name=IC50 reported_result="0.414 µM"

Prompt: Would you kindly share the measured IC50 for CC(=O)N(C)C[C@@H](C)Oc1cccc2ncnc(Nc3ccc(Oc4ccc(C)nc4)c(C)c3)c12 ?
Response: 1.88 µM

###

Molecular target: erbB2 tyrosine kinase (Homo sapiens, UniProt P04626)
Construct: Recombinant intracellular fragments of EGFR, erbB2 and erbB4; made in house; host or cells: baculovirus/Sf21 insect cells (cleared lysate used)
Sequence (P04626 676-1255 limits assumed): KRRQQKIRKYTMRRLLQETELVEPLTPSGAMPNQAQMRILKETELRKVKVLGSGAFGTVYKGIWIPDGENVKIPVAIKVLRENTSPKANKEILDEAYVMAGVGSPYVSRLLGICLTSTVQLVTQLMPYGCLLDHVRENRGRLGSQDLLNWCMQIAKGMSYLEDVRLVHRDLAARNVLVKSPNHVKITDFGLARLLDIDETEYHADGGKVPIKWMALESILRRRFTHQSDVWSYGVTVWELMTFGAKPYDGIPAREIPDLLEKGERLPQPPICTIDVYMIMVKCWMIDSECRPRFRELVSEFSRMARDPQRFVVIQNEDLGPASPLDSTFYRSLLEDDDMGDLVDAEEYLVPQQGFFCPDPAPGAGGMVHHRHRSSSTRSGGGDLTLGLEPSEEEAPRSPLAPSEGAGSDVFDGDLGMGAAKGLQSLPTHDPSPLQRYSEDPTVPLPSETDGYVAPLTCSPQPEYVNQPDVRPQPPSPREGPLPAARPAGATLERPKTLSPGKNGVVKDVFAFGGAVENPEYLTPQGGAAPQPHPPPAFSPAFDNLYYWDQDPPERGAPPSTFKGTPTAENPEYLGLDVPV
Test: Protein tyrosine kinase phosphorylation assay, Test (a), erbB2
Format: biochemical
Settings: recombinant intracellular fragment, ATP at Km; read-out: IC50 (μM) Test (a): Inhibition of erbB2 tyrosine kinase protein phosphorylation
Readout Name: IC50 (µM)
Write the number in µM without appending the unit.

compound="O=C(CO)N(CCOc1cccc2ncnc(Nc3ccc(OCc4ccccn4)c(Cl)c3)c12)C1CCOCC1 [Example 21]" readout_name=IC50 unit_tag=µM reported_result=0.002
compound="CC(=O)N(C)C[C@@H](C)Oc1cccc2ncnc(Nc3ccc(Oc4ccc(C)nc4)c(C)c3)c12 [Example 104]" readout_name=IC50 unit_tag=µM reported_result=0.017

Here is another compound to look at.
Prompt: Quick one: IC50 of CC(O)C(=O)N(C)CCOc1cccc2ncnc(Nc3ccc(OCc4ccccn4)c(Cl)c3)c12 (stereo not drawn) [Example 28] ?
Response: 0.002

From: patent US7625908B2
